protocol_text: A qHTS for Small Molecule Inhibitors of Shiga Toxin; further: 0% is about no effect
condition_set: Vero cells, Shiga toxin protein synthesis inhibition reporter; at 38.7 µM, stronger effect = higher value
Screen size: about 290,000 compounds; about 27,000 (9.3%) were called active. Only a selection was taken, and actives are over-represented in it overall.
readout: inhibition (%)
Only the number, expressed in %, is required.

Reference set (5 entries):
Cc1ccc(-c2csc(N(Cc3ccco3)C(=O)c3cccs3)n2)cc1: 18.8
CC(C)(C)NC(=O)NC(=O)COC(=O)CCC1CCCCC1: -9.95
CN(C(=O)CCNC(=O)Cn1ccc2ccccc2c1=O)c1ccc(Br)cc1: -19.7
CCCc1cc(-c2nc(-c3ccc(C)cc3)cs2)ccn1: 68
N/C(=N\OC(=O)CCC1CCCCC1)c1ccccn1: 84.9

Ask: Quick one: inhibition of `N/C(=N\OC(=O)Cc1ccccc1[N+](=O)[O-])c1ccc(Br)cc1` ?
Result: 49

Ask: Quick one: inhibition of `Cc1ccc(-c2csc(-c3cc(C)on3)n2)cc1` ?
Result: 43

Ask: Quick one: inhibition of `Cc1ccc(-c2csc(-c3c[nH]c4ccccc34)n2)cc1` ?
Result: 111

Ask: Quick one: inhibition of `Cc1c(C(C)(C)O)[nH]c2ccc(C#N)cc12` ?
Result: 7.17

Ask: Quick one: inhibition of `Cc1ccc(Sc2cc(C(=O)c3ccccc3C(=O)O)ccc2[N+](=O)[O-])cc1` ?
Result: 1.21

###

protocol_text: A qHTS for Small Molecule Inhibitors of Shiga Toxin; further: 0% is about no effect
condition_set: Vero cells, Shiga toxin protein synthesis inhibition reporter; at 38.7 µM, stronger effect = higher value
The whole screen tested about 290,000 compounds, of which about 27,000 (9.3%) were called active. For the sample, actives were picked, then their nearest neighbours and some compounds at random.
readout: inhibition (%)
Only the number, expressed in %, is required.

Reference set (5 entries):
COc1ccc(OCC(=O)NNC(=O)c2cccc(C)c2)cc1: -7.72
CC(=O)c1ccc(N2CCN(C(=O)c3ccc4nc[nH]c4c3)CC2)cc1: 29.9
O=C(O)C1CCCN1S(=O)(=O)c1ccc(Br)cc1 (stereo unspecified): -1.18
Cc1c(C)c2ccc(OCC(=O)N3CCC(C(=O)O)CC3)c(C)c2oc1=O: -1.33
CCOC(=O)C(CC)/C(C)=N\NC(=O)c1cccc(C)c1 (stereo unspecified): 66.3

Ask: Quick one: inhibition of `O=C(c1cccc(C(=O)N2CCN(c3ccc(F)cc3)CC2)c1)N1CCN(c2ccc(F)cc2)CC1` ?
Result: -8.51

Ask: Quick one: inhibition of `CCCC1=Nc2cc(C(=O)NCCN3CCCC3)ccc2Sc2ccccc21` ?
Result: -5.59

Ask: Quick one: inhibition of `CCNC(=O)COC(=O)CCNC(=O)c1cccc(C)c1` ?
Result: 43.3

###

This listing pairs compounds with measured inhibition.
protocol_text: A qHTS for Small Molecule Inhibitors of Shiga Toxin; further: 0% is about no effect
condition_set: Vero cells, Shiga toxin protein synthesis inhibition reporter; at 38.7 µM, stronger effect = higher value
The campaign covered roughly 290,000 compounds. About 27,000 (9.3%) were called active. The sample as a whole holds a higher share of actives than the screen did.

Reference set (10 entries):
C=C1/C(=C\C=C2\CCCC3(C)C2CCC3C(C)/C=C/C(O)C2CC2)CC(O)CC1O (stereo unspecified): -5.18% (inactive)
CCOc1ccc(CN2CCNC(=O)C2CC(=O)NCCCC2CCCC2)cc1 (stereo unspecified): 19% (active)
COc1ccc(CCN(C)C(=O)C23CC4CC(CC(Cl)(C4)C2)C3)cc1OC: -8.99% (inactive)
CC(=O)c1c(C)oc2ccc(NS(=O)(=O)c3ccc(C(=O)O)cc3)cc12: 18.1% (inactive)
CCN(CC)CCN1C(=O)C2C(C(=O)Nc3ccc(Br)cc3)C3C=CC2(O3)C1C(=O)NC1CCCCC1 (stereo unspecified): -12% (inactive)
CC(=O)OCCN(CCCn1c(-c2ccncc2)nc2ccccc21)c1nc(-c2ccc(C)cc2)cs1: -1.86% (inactive)
Cc1cccc(CSc2nnc(C)c(=O)n2N)c1: -13% (inactive)
Nn1c(SCc2ccccc2)nnc1C1CCCCC1: 101% (active)
Cc1nnc(SCc2cccc(Cl)c2)n(N)c1=O: -4.93% (inactive)
O=C(Nc1c2c(nn1-c1ccccc1)CS(=O)(=O)C2)C1CCCC1: -3.43% (inactive)

Proceeding to the next compound to report its inhibition.
Ask: Quick one: inhibition of `CC(C)Nc1ccc(-n2nc3ccccc3[n+]2[O-])cc1` ?
Result: 38.2% (active)
